target: HLA-A*1101 (human); test: inhibition of 125I probe peptide binding to purified HLA
pIC50: −log10 of the molar value.
# binarize pIC50: threshold 7 inclusive, high side fulfilled, low side not fulfilled

TVLWKDIFHR (synthetic analog peptide) [Her2/neu.166.V2R10]: not fulfilled

From here, focus on the item given below.
Input: # bool: pIC50 of TILWKDIFHK (synthetic peptide) [Her2/neu.166] >= 7
Output: fulfilled
